B1: TMEM106C (parent)
chain: FTGRDSITCLTCQGTGYIPTEQVN

Variants of: B1
Experiment: protein stability index of a GFP-peptide fusion (GPS, HEK-293T) (PSI 1-6); higher = more stable;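 also: lentivirally expressed fusions sorted by FACS into six bins by GFP to DsRed ratio, PSI derived from sequencing read proportions per bin multiplied by bin number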
Settings: c terminus: a fixed tail appended
Property name: protein stability index
# print the numeric value only

Examples from the recorded data:
G16I    2.94
D5A    1.94
T8N    1.92
T20M    1.93
T2F    3.19
T2L    2.61

Query: Indicate its recorded protein stability index; the variant in question is "I7S"
Response: 2.39
